Ki: recorded values
Molecular target: Adenosine receptor A3 (Homo sapiens, UniProt P0DMS8); further: in other assays of this panel Not Active means under 50% inhibition at 10 µM;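 further: radioligand binding assay with AB-MECA serving as the labeled ligand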
Sequence (P0DMS8 whole entry): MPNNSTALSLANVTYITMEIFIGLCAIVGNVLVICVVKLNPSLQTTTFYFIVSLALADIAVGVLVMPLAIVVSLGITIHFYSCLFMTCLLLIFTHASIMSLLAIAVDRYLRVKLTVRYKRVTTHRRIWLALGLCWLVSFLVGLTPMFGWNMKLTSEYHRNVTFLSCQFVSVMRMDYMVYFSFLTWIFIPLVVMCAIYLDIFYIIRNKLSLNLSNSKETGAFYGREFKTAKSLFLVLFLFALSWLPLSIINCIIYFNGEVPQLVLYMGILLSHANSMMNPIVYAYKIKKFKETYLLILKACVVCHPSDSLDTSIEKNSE
Assay type: cell membranes, CHO-K1, Membrane
Settings: read-out: Ki
Write the answer as a number in nM, unit excluded.

Below, each entry is followed by its recorded Ki result.
INSERT INTO results (compound, unit_info, numeric_value) VALUES
  ('c1ccc2c(c1)Nc1ccccc1S2', 'nM', 14500),
  ('c1ccc2sc(SSc3nc4ccccc4s3)nc2c1 [BENZOTHIAZYL DISULFIDE]', 'nM', 196),
  ('CN(CCOc1ccc(C[C@H](Nc2ccccc2C(=O)c2ccccc2)C(=O)O)cc1)c1ccccn1', 'nM', 8090),
  ('CC1=C(/C=C/C(C)=C/C=C/C(C)=C/C(=O)O)C(C)(C)CCC1', 'nM', 2980);

Query :: I have this compound here, CCN(CC)C(=S)SSC(=S)N(CC)CC , and I need its recorded Ki.
Result :: 201

* * *

Biological target: UniProtKB P0DMS8
Format: cell membranes, CHO-K1, Membrane
Conditions: read-out: IC50
pIC50: recorded values
FYI, pIC50 means -log10 of a concentration in mol per litre.

Below, each entry is followed by its recorded pIC50 result.
INSERT INTO assay_data (compound, system_tested, numeric_value) VALUES
  ('CCN(CC)C(=S)SSC(=S)N(CC)CC', 'UniProtKB P0DMS8', 6.45),
  ('CC1=C(/C=C/C(C)=C/C=C/C(C)=C/C(=O)O)C(C)(C)CCC1 [TRETINOIN]', 'UniProtKB P0DMS8', 5.28),
  ('CN(CCOc1ccc(C[C@H](Nc2ccccc2C(=O)c2ccccc2)C(=O)O)cc1)c1ccccn1', 'UniProtKB P0DMS8', 4.84);

Let us move to another entry and its pIC50.
Query :: I have this compound here, CCOC(=O)C1=C(C)NC(C)=C(C(=O)OCC)C1c1ccccc1/C=C/C(=O)OC(C)(C)C [LACIDIPINE] , and I need its recorded pIC50.
Result :: 5.39

* * *

Assay: DRUGMATRIX: Sodium/nucleoside co-transporter radioligand binding (ligand: nitrobenzylthioinosine)
Assay type: cell membranes, Cavia porcellus, Dunkin-Hartley, Cerebral cortex, Membrane
Details: Not Active = under 50% inhibition at 10 µM; read-out: IC50
observable: IC50 (µM)
Write the answer as a number in µM, unit excluded.

Query :: I have this compound here, CCN(CC)C(=S)SSC(=S)N(CC)CC , and I need its recorded IC50.
Result :: 16.9

* * *

Target: Cytochrome P450 2C19 (Homo sapiens); further: in other assays of this panel Not Active means under 50% inhibition at 10 µM
Sequence (P33261 whole entry): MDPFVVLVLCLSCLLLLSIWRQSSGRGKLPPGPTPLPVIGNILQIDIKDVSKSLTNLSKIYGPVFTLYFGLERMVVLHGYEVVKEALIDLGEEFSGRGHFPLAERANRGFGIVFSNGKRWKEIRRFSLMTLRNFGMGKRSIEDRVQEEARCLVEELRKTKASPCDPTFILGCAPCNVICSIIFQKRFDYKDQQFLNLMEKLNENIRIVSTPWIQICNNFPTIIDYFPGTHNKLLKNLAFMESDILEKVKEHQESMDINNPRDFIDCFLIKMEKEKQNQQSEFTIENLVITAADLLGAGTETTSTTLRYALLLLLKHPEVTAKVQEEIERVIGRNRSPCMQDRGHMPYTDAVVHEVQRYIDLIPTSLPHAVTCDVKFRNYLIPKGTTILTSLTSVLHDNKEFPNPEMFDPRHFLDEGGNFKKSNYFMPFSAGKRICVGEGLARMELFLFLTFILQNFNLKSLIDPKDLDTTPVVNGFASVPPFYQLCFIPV
Details: bti-tn-5b1-4
observable: Ki

INSERT INTO measurements (compound, observable, result) VALUES
  ('CC(CN1c2ccccc2Sc2ccccc21)N(C)C (stereo not drawn)', 'Ki', 'Not Active'),
  ('CC(O)C(=O)O (stereo not drawn)', 'Ki', 'Not Active'),
  ('Cc1c(N)nc([C@H](CC(N)=O)NC[C@H](N)C(N)=O)nc1C(=O)N[C@H](C(=O)N[C@H](C)[C@@H](O)[C@H](C)C(=O)N[C@H](C(=O)NCCc1nc(-c2nc(C(=O)NCCC[S+](C)C)cs2)cs1)[C@@H](C)O)[C@@H](O[C@@H]1O[C@@H](CO)[C@@H](O)[C@H](O)[C@@H]1O[C@H]1O[C@H](CO)[C@@H](O)[C@H](OC(N)=O)[C@@H]1O)c1c[nH]cn1.[Br-]', 'Ki', 'Not Active');

* * *

Test: DRUGMATRIX: Purinergic P2X radioligand binding (ligand: [3H] alpha, beta-Methylene-ATP)
Assay type: cell membranes, Oryctolagus cuniculus, New Zealand albino, Urinary bladder, Membrane
Conditions: Not Active = under 50% inhibition at 10 µM
observable: IC50

INSERT INTO results (compound, observable, result) VALUES
  ('COc1cc(NC(C)CCCN)c2ncccc2c1 (centres undefined)', 'IC50', 'Not Active'),
  ('NS(=O)(=O)c1cc(C(=O)O)c(NCc2ccco2)cc1Cl [FUROSEMIDE]', 'IC50', 'Not Active'),
  ('C=CCc1ccc2c(c1)OCO2', 'IC50', 'Not Active'),
  ('ClC1=C(Cl)[C@]2(Cl)[C@@H]3[C@@H]4C[C@@H]([C@H]5O[C@@H]45)[C@@H]3[C@@]1(Cl)C2(Cl)Cl', 'IC50', 'Not Active'),
  ('CC1=C(/C=C/C(C)=C/C=C/C(C)=C/C(=O)O)C(C)(C)CCC1', 'IC50', 'Not Active'),
  ('Oc1ncnc2[nH]ncc12', 'IC50', 'Not Active');

Query :: I have this compound here, C1CCN2C[C@@H]3C[C@@H](CN4CCCC[C@@H]34)[C@H]2C1 , and I need its recorded IC50.
Result :: Not Active

Query :: I have this compound here, CC(N)C12CC3CC(CC(C3)C1)C2 (centres undefined) , and I need its recorded IC50.
Result :: Not Active

Query :: I have this compound here, CC(=O)Nc1ccc2c(c1)Cc1ccccc1-2 , and I need its recorded IC50.
Result :: Not Active

Query :: I have this compound here, CC(Cl)(Cl)Cl , and I need its recorded IC50.
Result :: Not Active

Query :: I have this compound here, CC12CCC(CC1)C(C)(C)O2 , and I need its recorded IC50.
Result :: Not Active

Query :: I have this compound here, Nc1nc(N)c2nc(-c3ccccc3)c(N)nc2n1 , and I need its recorded IC50.
Result :: Not Active

Query :: I have this compound here, Nc1ccc(C(=O)O)c(O)c1 , and I need its recorded IC50.
Result :: Not Active

Query :: I have this compound here, CCOC(=O)C1=C(C)NC(C)=C(C(=O)OCC)C1c1ccccc1/C=C/C(=O)OC(C)(C)C , and I need its recorded IC50.
Result :: Not Active

* * *

Target: Sodium-dependent noradrenaline transporter (Homo sapiens, UniProt P23975)
Sequence (P23975 whole entry): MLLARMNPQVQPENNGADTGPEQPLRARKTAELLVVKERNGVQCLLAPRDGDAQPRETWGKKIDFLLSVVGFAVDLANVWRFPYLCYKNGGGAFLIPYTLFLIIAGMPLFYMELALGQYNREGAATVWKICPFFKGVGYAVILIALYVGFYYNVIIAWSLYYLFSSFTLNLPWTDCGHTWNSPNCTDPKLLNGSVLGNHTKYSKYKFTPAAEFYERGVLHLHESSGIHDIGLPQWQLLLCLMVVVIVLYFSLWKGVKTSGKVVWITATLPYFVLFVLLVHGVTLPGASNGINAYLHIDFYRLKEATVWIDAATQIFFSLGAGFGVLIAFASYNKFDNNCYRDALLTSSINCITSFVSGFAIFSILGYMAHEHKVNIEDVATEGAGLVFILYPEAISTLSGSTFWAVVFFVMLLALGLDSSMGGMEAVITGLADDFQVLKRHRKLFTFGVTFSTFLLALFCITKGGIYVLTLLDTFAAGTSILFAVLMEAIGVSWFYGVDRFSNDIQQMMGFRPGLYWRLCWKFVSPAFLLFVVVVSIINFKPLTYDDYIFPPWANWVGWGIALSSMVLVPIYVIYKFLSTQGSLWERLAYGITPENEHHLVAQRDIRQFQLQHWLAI
Test: DRUGMATRIX: Norepinephrine Transporter radioligand binding (ligand: [125I] RTI-55)
Format: cell membranes, MDCK, Membrane
Details: Not Active = under 50% inhibition at 10 µM; read-out: IC50
Just so you know, the groups by IC50 go like this: b0 (below 2 µM), b1 (2 µM to below 6 µM), b2 (6 µM or more)

Use these answered entries as a reference point.
INSERT INTO assay_data (molecule, label) VALUES
  ('COc1ccccc1OCCNCC(O)COc1cccc2[nH]c3ccccc3c12 (stereo unspecified) [CARVEDILOL]', 'b0'),
  ('CC(N)Cc1c[nH]c2ccc(OCc3cccs3)cc12 (stereo unspecified) [BW-723C86]', 'b1'),
  ('c1ccc2c(c1)Nc1ccccc1S2 [PHENOTHIAZINE]', 'b0'),
  ('CC(=O)Nc1ccc2c(c1)Cc1ccccc1-2 [2-ACETYLAMINOFLUORENE]', 'b2'),
  ('CC(C)(c1ccc(O)cc1)c1ccc(O)cc1 [BISPHENOL A]', 'b2');

Query :: Form field 'band' for CC1(COc2ccc(CC3SC(=O)NC3=O)cc2)CCCCC1 (stereo unspecified) [CIGLITAZONE]
Result :: b1

Query :: Form field 'band' for Oc1ccc(/C=C/c2cc(O)cc(O)c2)cc1 [RESVERATROL]
Result :: b1

Query :: Form field 'band' for CC(CN1c2ccccc2Sc2ccccc21)N(C)C (stereo unspecified) [PROMETHAZINE]
Result :: b1

* * *

Target: UniProt P29476
Sequence (P29476 whole entry): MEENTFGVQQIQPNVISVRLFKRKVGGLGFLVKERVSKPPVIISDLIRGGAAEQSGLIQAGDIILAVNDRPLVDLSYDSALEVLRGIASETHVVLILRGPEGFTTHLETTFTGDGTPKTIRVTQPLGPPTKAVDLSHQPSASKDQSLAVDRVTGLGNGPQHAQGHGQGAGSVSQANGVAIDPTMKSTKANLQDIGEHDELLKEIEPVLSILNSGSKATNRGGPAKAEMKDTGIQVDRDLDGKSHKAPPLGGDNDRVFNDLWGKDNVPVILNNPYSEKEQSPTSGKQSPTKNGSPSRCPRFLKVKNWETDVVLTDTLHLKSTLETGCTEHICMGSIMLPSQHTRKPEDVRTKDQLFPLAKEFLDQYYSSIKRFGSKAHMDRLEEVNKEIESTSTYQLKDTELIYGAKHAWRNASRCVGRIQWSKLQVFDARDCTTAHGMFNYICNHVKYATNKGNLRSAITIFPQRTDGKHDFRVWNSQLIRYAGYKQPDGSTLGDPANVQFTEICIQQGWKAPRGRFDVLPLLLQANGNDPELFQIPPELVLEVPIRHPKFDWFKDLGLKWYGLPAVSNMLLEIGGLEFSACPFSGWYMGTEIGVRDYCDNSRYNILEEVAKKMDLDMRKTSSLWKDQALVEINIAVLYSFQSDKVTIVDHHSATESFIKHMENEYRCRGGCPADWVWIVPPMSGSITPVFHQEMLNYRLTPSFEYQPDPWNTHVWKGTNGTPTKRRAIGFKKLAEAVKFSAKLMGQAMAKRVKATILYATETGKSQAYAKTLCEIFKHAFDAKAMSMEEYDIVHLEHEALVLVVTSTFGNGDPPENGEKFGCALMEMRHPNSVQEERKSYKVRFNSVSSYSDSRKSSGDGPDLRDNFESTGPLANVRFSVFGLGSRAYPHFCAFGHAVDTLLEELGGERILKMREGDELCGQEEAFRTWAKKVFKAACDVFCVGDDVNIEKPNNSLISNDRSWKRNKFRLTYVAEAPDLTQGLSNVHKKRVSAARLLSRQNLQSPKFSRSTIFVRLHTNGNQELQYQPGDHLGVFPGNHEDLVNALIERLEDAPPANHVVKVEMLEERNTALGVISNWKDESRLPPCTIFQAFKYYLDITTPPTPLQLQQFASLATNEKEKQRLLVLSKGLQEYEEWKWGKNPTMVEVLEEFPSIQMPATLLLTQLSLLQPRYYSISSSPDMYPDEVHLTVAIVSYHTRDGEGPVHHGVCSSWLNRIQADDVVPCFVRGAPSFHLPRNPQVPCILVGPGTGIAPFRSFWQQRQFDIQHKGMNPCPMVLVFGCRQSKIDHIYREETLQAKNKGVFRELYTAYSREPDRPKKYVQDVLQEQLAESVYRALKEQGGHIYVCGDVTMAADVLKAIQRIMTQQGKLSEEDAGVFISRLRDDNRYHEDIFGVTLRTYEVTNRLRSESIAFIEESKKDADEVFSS
Format: tissue-based, Cerebellum
observable: IC50

Below, each entry is followed by its recorded IC50 result.
INSERT INTO assay_data (smiles_code, observable, result) VALUES
  ('Cc1ccnc2c1NC(=O)c1cccnc1N2C1CC1', 'IC50', 'Not Active'),
  ('COC(=O)C[C@](O)(CCC(C)(C)O)C(=O)O[C@@H]1C(OC)=C[C@]23CCCN2CCc2cc4c(cc2[C@H]13)OCO4', 'IC50', 'Not Active'),
  ('NC(N)=Nc1nc(CSCCC(N)=NS(N)(=O)=O)cs1', 'IC50', 'Not Active'),
  ('OC[C@H]1O[C@@H]2O[C@H]3[C@H](O)[C@@H](O)[C@@H](O[C@H]4[C@H](O)[C@@H](O)[C@@H](O[C@H]5[C@H](O)[C@@H](O)[C@@H](O[C@H]6[C@H](O)[C@@H](O)[C@@H](O[C@H]7[C@H](O)[C@@H](O)[C@@H](O[C@H]1[C@H](O)[C@H]2O)O[C@@H]7CO)O[C@@H]6CO)O[C@@H]5CO)O[C@@H]4CO)O[C@@H]3CO', 'IC50', 'Not Active'),
  ('CC(C)(c1ccc(O)cc1)c1ccc(O)cc1', 'IC50', 'Not Active');

Query :: I have this molecule here, Nc1ccc(C(=O)O)c(O)c1 , and I need its recorded IC50.
Result :: Not Active
